Several publications report IC50 on Sterol O-acyltransferase 1 (Rattus norvegicus); those values are gathered here.
PARAMETER: IC50 (nM)

Example entries begin here.
| COMPOUND | IC50 [nM] |
| --- | --- |
| CCCCCCCN(CCCCCSc1nc(-c2ccccc2)c(-c2ccccc2)[nH]1)C(=O)Nc1ccc(-c2ccccc2)cc1 | 70 |
| O=C(CCCn1c2c(c(=O)n3nc(-c4ccccc4)cc13)CN(C1CCCCC1)C2=O)c1ccccc1 | 13700 |
| CCC(C)N(C(=O)NS(=O)(=O)Oc1c(C(C)C)cccc1C(C)C)C(C)CC (stereo not drawn) | 12000 |

1. CC(C)c1cccc(C(C)C)c1NC(=O)NS(=O)(=O)Nc1c(C(C)C)cccc1C(C)C
2. Cc1cccc2ncc(NC(=O)Nc3ccc(F)cc3F)c(-c3ccccc3Cl)c12
3. CCCCCCCN(CC(C)(C)CCSc1nc(-c2ccccc2)c(-c2ccccc2)[nH]1)C(=O)Nc1ccc(F)cc1F
Incoming: Arrange these compounds by their IC50, starting with the largest number. Output the labels ranked as instructed.
Outgoing: 1, 2, 3
(1: 11000 nM, 2: 149 nM, 3: 70 nM)

====

Several publications report IC50 on Sterol O-acyltransferase 1 (Rattus norvegicus, UniProt O70536); those values are gathered here.
SYSTEM_TESTED: Sterol O-acyltransferase 1 (Rattus norvegicus, UniProt O70536)
Sequence (O70536 whole entry): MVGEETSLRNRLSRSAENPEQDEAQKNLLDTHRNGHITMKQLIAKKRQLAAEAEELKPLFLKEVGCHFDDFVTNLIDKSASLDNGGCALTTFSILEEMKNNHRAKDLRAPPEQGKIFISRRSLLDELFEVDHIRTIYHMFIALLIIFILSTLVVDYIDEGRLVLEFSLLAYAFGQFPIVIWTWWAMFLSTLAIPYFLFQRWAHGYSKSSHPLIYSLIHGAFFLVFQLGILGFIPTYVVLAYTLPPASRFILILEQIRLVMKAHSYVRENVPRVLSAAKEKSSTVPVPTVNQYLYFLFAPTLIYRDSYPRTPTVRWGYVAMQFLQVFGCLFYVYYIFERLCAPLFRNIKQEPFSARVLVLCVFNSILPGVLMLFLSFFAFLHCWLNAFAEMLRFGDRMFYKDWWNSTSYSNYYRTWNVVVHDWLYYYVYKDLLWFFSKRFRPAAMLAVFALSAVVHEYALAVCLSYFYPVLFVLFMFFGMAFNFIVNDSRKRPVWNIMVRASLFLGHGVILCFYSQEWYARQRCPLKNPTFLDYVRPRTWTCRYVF
PARAMETER: IC50 (nM)

I. Cc1cc(C)c2ncc(NC(=O)Nc3c(F)cc(F)cc3F)c(-c3ccccc3Cl)c2c1
II. CC(C)NC(=O)N(CCCCCSc1nc(-c2ccccc2)c(-c2ccccc2)[nH]1)c1ccc(F)cc1F
III. CC(C)c1cccc(C(C)C)c1NC(=O)NS(=O)(=O)NC(c1ccccc1)c1ccccc1
IV. CCCCCCCCCCCCCCN(C)S(=O)(=O)NC(=O)Nc1c(C(C)C)cccc1C(C)C
Incoming: Quick one: which order do the items above go in by IC50, smallest to largest? Output the labels ranked as instructed.
Outgoing: I, II, IV, III

a. CCCN(CCCCCSc1nc(-c2ccccc2)c(-c2ccccc2)[nH]1)C(=O)Nc1ccc(F)cc1F
b. CCCCCCCCNC(=O)N(CCCCCSc1nc(-c2ccccc2)c(-c2ccccc2)[nH]1)c1ccccc1
Incoming: Field: entry with larger IC50 (options a / b ). Give the label under which the chosen entry appears.
Outgoing: a
